Tested on: Medicago sativa
Experiment: Pre-emergence herbicidal activity against Medicago sativa (alfalfa) assessed as growth inhibition at 1500 ai g/ha after 20 days by green house test
Format: functional

{"compound": "COP(=O)(OC)C(OC(=O)COc1ccc(F)cc1F)c1cccc([N+](=O)[O-])c1 (stereo not given)", "growth inhibition (GI) / %": 50}
{"compound": "COP(=O)(OC)C(OC(=O)COc1ccc(F)cc1Cl)c1cccc([N+](=O)[O-])c1 (stereo not given)", "growth inhibition (GI) / %": 90}
{"compound": "COP(=O)(OC)C(OC(=O)COc1ccc(F)cc1Cl)c1ccccc1O (stereo not given)", "growth inhibition (GI) / %": 90}
{"compound": "COP(=O)(COC(=O)COc1cccc(C(F)(F)F)c1)OC", "growth inhibition (GI) / %": 75}
{"compound": "COP(=O)(OC)C(OC(=O)COc1ccc(F)cc1Cl)c1ccccc1 (stereo not given)", "growth inhibition (GI) / %": 90}
{"compound": "COP(=O)(OC)C(C)OC(=O)COc1ccc(Cl)cc1C (stereo not given)", "growth inhibition (GI) / %": 90}
{"compound": "COP(=O)(OC)C(OC(=O)COc1ccc(Cl)c(C)c1)c1cccc([N+](=O)[O-])c1 (stereo not given)", "growth inhibition (GI) / %": 75}

Data credit: ChEMBL document CHEMBL3045592
